Give measured Mouse MTD for each item. Keep answers brief.
# Method Description: Mouse maximum tolerated dose, single dose intravenous
# Assay type: in vivo
# Condition Parameters: mice, single dose intravenous administration
# Method: The maximum tolerated dose (MTD) in mice, upon single dose intravenous administration was determined for a representative selection of compounds. The data are summarized in Table 4, with comparative data for LMB included.
Your answer should be a plain number; it is taken to be in mg/kg.

Just so you know, measured Mouse MTD for CCC(C=CC1OC(=O)C=CC1C)=CC(C)CC=CC(C)=CC(C)C(=O)C(C)C(O)C(C)CC(C)=CC(=O)NC (centres unmarked) came out at 5

The reported Mouse MTD of the molecule CCC(C=CC1OC(=O)C=CC1C)=CC(C)CC=CC(C)=CC(C)C(=O)C(C)C(O)C(C)CC(C)=CC(=O)NCCN(C)C (centres unmarked) was 15

Lab book: Mouse MTD of CCC(C=CC1OC(=O)C=CC1C)=CC(C)CC=CC(C)=CC(C)C(=O)C(C)C(O)C(C)CC(C)=CC(=O)NCCc1cccnc1 (centres unmarked) noted as 40

Mouse MTD reported for this molecule CCC(C=CC1OC(=O)C=CC1C)=CC(C)CC=CC(C)=CC(C)C(=O)C(C)C(O)C(C)CC(C)=CC(=O)NCCCN1CCOCC1 (centres unmarked) : 20

Measured Mouse MTD, CCC(=C/[C@H](C)C/C=C/C(C)=C/[C@@H](C)C(=O)[C@@H](C)[C@H](O)[C@@H](C)C/C(C)=C/C(=O)O)/C=C/[C@@H]1OC(=O)C=C[C@@H]1C [LMB, Leptomycin B, reference compound] : 2.5
